- Species: Rattus norvegicus
- experimental protocol: Open TG-GATES - Regimen: Daily Repeat
- Type: toxicity, organism-based, Sprague-Dawley
- Parameters: regimen Daily Repeat, gender Male, age 6 weeks
- conditions used: in vivo, po, 0 mg/kg, […], tissue Plasma, route gavage, dose level Control, time 7 day
outcome measure: TC (mg/dL)
// return numeric value only (unit: mg/dL, not printed)

compound: CC(C)Cc1ccc(C(C)C(=O)O)cc1 (stereo not drawn) [IBUPROFEN]
measurement unit: mg/dL
result: 71.2
--
compound: CC(N)=O [ACETAMIDE]
measurement unit: mg/dL
result: 72.6
--
compound: O=C(O)COc1nn(Cc2ccccc2)c2ccccc12 [BENDAZAC]
measurement unit: mg/dL
result: 70

### Prompt Quick check: TC of CCN(CC)N=O [N-NITROSODIETHYLAMINE] ?
### Response 83.2

### Prompt Quick check: TC of CC(CCc1ccccc1)NCC(O)c1ccc(O)c(C(N)=O)c1 (stereo not drawn) [LABETALOL] ?
### Response 85.4

### Prompt Quick check: TC of CC(=O)Nc1ccc2c(c1)Cc1ccccc1-2 [2-ACETYLAMINOFLUORENE] ?
### Response 64.8

### Prompt Quick check: TC of CC(=O)N1CCN(c2ccc(OCC3COC(Cn4ccnc4)(c4ccc(Cl)cc4Cl)O3)cc2)CC1 (stereo not drawn) [KETOCONAZOLE] ?
### Response 80.6

### Prompt Quick check: TC of CC[C@@H](CO)NCCN[C@@H](CC)CO [ETHAMBUTOL] ?
### Response 75.4

* * *

Listing of recorded KIDNEY_L by entry.
- Species on record: Rattus norvegicus
- experimental protocol: Open TG-GATES - Regimen: Daily Repeat
- Type: toxicity, organism-based, Sprague-Dawley
- Parameters: regimen Daily Repeat, gender Male, age 6 weeks
- conditions used: in vivo, po, 0 mg/kg, […], tissue Kidney, route gavage, dose level Control, time 7 day
// return numeric value only (unit: g, not printed)

# example entries with known answers
compound: CC(=O)Nc1ccc2c(c1)Cc1ccccc1-2
KIDNEY_L, g: 1.2

compound: CCN(CC)N=O
KIDNEY_L, g: 1.2

compound: CC(=O)N1CCN(c2ccc(OCC3COC(Cn4ccnc4)(c4ccc(Cl)cc4Cl)O3)cc2)CC1 (stereo not drawn)
KIDNEY_L, g: 1.2

compound: O=C(O)COc1nn(Cc2ccccc2)c2ccccc12
KIDNEY_L, g: 1.1

compound: CC[C@@H](CO)NCCN[C@@H](CC)CO
KIDNEY_L, g: 1.1

### Prompt Quick check: KIDNEY_L of CC(C)Cc1ccc(C(C)C(=O)O)cc1 (stereo not drawn) ?
### Response 1.1

### Prompt Quick check: KIDNEY_L of CC(N)=O [ACETAMIDE] ?
### Response 1.1

### Prompt Quick check: KIDNEY_L of CC(CCc1ccccc1)NCC(O)c1ccc(O)c(C(N)=O)c1 (stereo not drawn) ?
### Response 1.2

* * *

- Organism: Rattus norvegicus
- experimental protocol: Open TG-GATES - Regimen: Daily Repeat
- Format: toxicity, organism-based, Sprague-Dawley
- Parameters: regimen Daily Repeat, gender Male, age 6 weeks
- conditions used: in vivo, po, 0 mg/kg, 72 h, tissue Plasma, route gavage, dose level Control, time 3 day
Hi! Just check whether DBIL is below 0.02 mg/dL. Below gives satisfied, equal or above gives not satisfied.

molecule: CC(CCc1ccccc1)NCC(O)c1ccc(O)c(C(N)=O)c1 (stereo not drawn)
class label: satisfied

molecule: CC(=O)N1CCN(c2ccc(OCC3COC(Cn4ccnc4)(c4ccc(Cl)cc4Cl)O3)cc2)CC1 (stereo not drawn)
class label: satisfied

molecule: CC(C)Cc1ccc(C(C)C(=O)O)cc1 (stereo not drawn)
class label: satisfied

molecule: O=C(O)COc1nn(Cc2ccccc2)c2ccccc12
class label: not satisfied

### Prompt Quick check: DBIL of CC[C@@H](CO)NCCN[C@@H](CC)CO under 0.02 mg/dL?
### Response satisfied

### Prompt Quick check: DBIL of CCN(CC)N=O under 0.02 mg/dL?
### Response not satisfied

### Prompt Quick check: DBIL of CC(=O)Nc1ccc2c(c1)Cc1ccccc1-2 under 0.02 mg/dL?
### Response not satisfied

### Prompt Quick check: DBIL of CC(N)=O [ACETAMIDE] under 0.02 mg/dL?
### Response satisfied

* * *

Listing of recorded KIDNEY_R by entry.
- Species on record: Rattus norvegicus
- experimental protocol: Open TG-GATES - Regimen: Daily Repeat
- Format: toxicity, organism-based, Sprague-Dawley
- Design: regimen Daily Repeat, gender Male, age 6 weeks
- conditions used: in vivo, po, 0 mg/kg, […], tissue Kidney, route gavage, dose level Control, time 7 day
Write your answer as a measured quantity: the number, then the unit.

# example entries with known answers
compound: CC(C)Cc1ccc(C(C)C(=O)O)cc1 (stereo not drawn)
result: 1.2 g
--
compound: CCN(CC)N=O
result: 1.1 g
--
compound: O=C(O)COc1nn(Cc2ccccc2)c2ccccc12
result: 1.2 g
--
compound: CC[C@@H](CO)NCCN[C@@H](CC)CO
result: 1.1 g
--
compound: CC(=O)Nc1ccc2c(c1)Cc1ccccc1-2
result: 1.2 g

### Prompt Quick check: KIDNEY_R of CC(=O)N1CCN(c2ccc(OCC3COC(Cn4ccnc4)(c4ccc(Cl)cc4Cl)O3)cc2)CC1 (stereo not drawn) ?
### Response 1.2 g

### Prompt Quick check: KIDNEY_R of CC(CCc1ccccc1)NCC(O)c1ccc(O)c(C(N)=O)c1 (stereo not drawn) ?
### Response 1.2 g

### Prompt Quick check: KIDNEY_R of CC(N)=O [ACETAMIDE] ?
### Response 1.2 g

* * *

- Species: Rattus norvegicus
- experimental protocol: Open TG-GATES - Regimen: Daily Repeat
- Type: toxicity, organism-based, Sprague-Dawley
- Set-up: regimen Daily Repeat, gender Male, age 6 weeks
- conditions used: in vivo, po, 0 mg/kg, […], tissue Plasma, route gavage, dose level Control, time 14 day
Listing of recorded PL by entry.
// return numeric value only (unit: mg/dL, not printed)

compound: CCN(CC)N=O
outcome measure: PL
measurement unit: mg/dL
result: 144.4
--
compound: CC(=O)N1CCN(c2ccc(OCC3COC(Cn4ccnc4)(c4ccc(Cl)cc4Cl)O3)cc2)CC1 (stereo not drawn)
outcome measure: PL
measurement unit: mg/dL
result: 167.6
--
compound: CC[C@@H](CO)NCCN[C@@H](CC)CO
outcome measure: PL
measurement unit: mg/dL
result: 139.6
--
compound: CC(C)Cc1ccc(C(C)C(=O)O)cc1 (stereo not drawn)
outcome measure: PL
measurement unit: mg/dL
result: 149
--
compound: CC(CCc1ccccc1)NCC(O)c1ccc(O)c(C(N)=O)c1 (stereo not drawn)
outcome measure: PL
measurement unit: mg/dL
result: 146.8

### Prompt Quick check: PL of CC(=O)Nc1ccc2c(c1)Cc1ccccc1-2 ?
### Response 143.2

### Prompt Quick check: PL of O=C(O)COc1nn(Cc2ccccc2)c2ccccc12 ?
### Response 158

### Prompt Quick check: PL of CC(N)=O [ACETAMIDE] ?
### Response 156

* * *

- Species on record: Rattus norvegicus
- experimental protocol: Open TG-GATES - Regimen: Single
- Assay type: toxicity, organism-based, Sprague-Dawley
- Set-up: regimen Single, gender Male, age 6 weeks
- conditions used: in vivo, po, 0 mg/kg, 9 h, tissue Plasma, route gavage, dose level Control
outcome measure: K
Write your answer as a measured quantity: the number, then the unit.

### Prompt Quick check: K of CC[C@@H](CO)NCCN[C@@H](CC)CO ?
### Response 4.1 meq/L

### Prompt Quick check: K of CC(C)Cc1ccc(C(C)C(=O)O)cc1 (stereo unspecified) ?
### Response 4.1 meq/L

### Prompt Quick check: K of CC(=O)Nc1ccc2c(c1)Cc1ccccc1-2 ?
### Response 3.7 meq/L

### Prompt Quick check: K of O=C(O)COc1nn(Cc2ccccc2)c2ccccc12 ?
### Response 4.6 meq/L

### Prompt Quick check: K of CC(CCc1ccccc1)NCC(O)c1ccc(O)c(C(N)=O)c1 (stereo unspecified) ?
### Response 3.8 meq/L

### Prompt Quick check: K of CCN(CC)N=O ?
### Response 3.8 meq/L

* * *

- Species: Rattus norvegicus
- experimental protocol: Open TG-GATES - Regimen: Daily Repeat
- Type: toxicity, organism-based, Sprague-Dawley
- Set-up: regimen Daily Repeat, gender Male, age 6 weeks
- conditions used: in vivo, po, 0 mg/kg, […], tissue Blood, route gavage, dose level Control, time 14 day
Listing of recorded Lym by entry.
// return numeric value only (unit: %, not printed)

# example entries with known answers
compound: CC(=O)Nc1ccc2c(c1)Cc1ccccc1-2 [2-ACETYLAMINOFLUORENE]
measurement unit: %
Lym: 82.8
--
compound: CCN(CC)N=O [N-NITROSODIETHYLAMINE]
measurement unit: %
Lym: 82
--
compound: CC(CCc1ccccc1)NCC(O)c1ccc(O)c(C(N)=O)c1 (stereo not drawn) [LABETALOL]
measurement unit: %
Lym: 71.8
--
compound: CC[C@@H](CO)NCCN[C@@H](CC)CO [ETHAMBUTOL]
measurement unit: %
Lym: 80
--
compound: CC(C)Cc1ccc(C(C)C(=O)O)cc1 (stereo not drawn) [IBUPROFEN]
measurement unit: %
Lym: 83.8
--
compound: O=C(O)COc1nn(Cc2ccccc2)c2ccccc12 [BENDAZAC]
measurement unit: %
Lym: 80.4
--
compound: CC(N)=O [ACETAMIDE]
measurement unit: %
Lym: 79.8

### Prompt Quick check: Lym of CC(=O)N1CCN(c2ccc(OCC3COC(Cn4ccnc4)(c4ccc(Cl)cc4Cl)O3)cc2)CC1 (stereo not drawn) [KETOCONAZOLE] ?
### Response 81.4
